- Experimental System: CB1-receptor (UniProt P20272)
- Assay Protocol: binding of the pyrazoline compounds to CB1-receptors (Pharmacological Methods, Part I)
- Design: IC50; species or system human or rat
- Test Settings: radioligand [3H]-CP55940, read-out: IC50
pIC50: −log10 of the molar value. Where a name gives a salt, the structure may show the parent alone.
Attribute Measured: pIC50

- Compound: "C[C@H]1C(C(=O)NN2CCCCCC2)=NN(c2ccc(Cl)cc2Cl)[C@H]1c1ccc(Cl)cc1.Cl (relative stereo) [Example 96, hydrochloride]"
  Endpoint Value: 8.10
- Compound: "C[C@@H]1C(C(=O)NN2CCCCC2)=NN(c2ccc(Cl)cc2Cl)[C@@H]1c1ccc(Cl)cc1 (relative stereo) [Example 434]"
  Endpoint Value: 7.05
- Compound: "C[C@H]1C(C(=O)NC2CCCCCC2)=NN(c2ccc(Cl)cc2Cl)[C@H]1c1ccc(Cl)cc1 (relative stereo)"
  Endpoint Value: 7.50
- Compound: "C[C@@H]1C(C(=O)NN2CCCCC2)=NN(c2ccc(Cl)cc2Cl)[C@@H]1c1ccc(Br)cc1.Cl (relative stereo) [Example 418, hydrochloride]"
  Endpoint Value: 7.44
- Compound: "COc1ccc([C@@H]2[C@H](C)C(C(=O)NN3CCCCC3)=NN2c2ccc(Cl)cc2Cl)cc1 (relative stereo)"
  Endpoint Value: 7.09
- Compound: "C[C@H]1C(C(=S)NN2CCCCC2)=NN(c2ccc(Cl)cc2Cl)[C@H]1c1ccc(Cl)cc1 (relative stereo) [Example 379, hydrochloride]"
  Endpoint Value: 6.95
- Compound: "C[C@@H]1C(C(=O)NN2CCCCC2)=NN(c2ccc(Cl)cc2Cl)[C@@H]1c1ccc(Cl)cc1 (single isomer, unassigned) [Example 419]"
  Endpoint Value: 7.27
- Compound: "C[C@H]1C(C(=O)NN2CCCCC2)=NN(c2ccc(Cl)cc2Cl)[C@H]1c1cc(Br)cs1 (relative stereo)"
  Endpoint Value: 6.74
- Compound: "C[C@H]1C(C(=O)NN2CC3CCCC3C2)=NN(c2ccc(Cl)cc2Cl)[C@H]1c1ccc(Br)cc1 (relative stereo) [Example 213, hydrochloride]"
  Endpoint Value: 7.28
- Compound: "CC[C@@H]1C(C(=O)NN2CCCCC2)=NN(c2ccc(Cl)cc2Cl)[C@@H]1c1ccc(Cl)cc1 (relative stereo)"
  Endpoint Value: 7.05
- Compound: "COc1ccc([C@H]2[C@@H](C)C(C(=O)NN3CCCCCC3)=NN2c2ccc(Cl)cc2Cl)cc1.Cl (relative stereo) [Example 271, hydrochloride]"
  Endpoint Value: 7.21
- Compound: "CC1Cc2ccccc2N1NC(=O)C1=NN(c2ccc(Cl)cc2Cl)[C@@H](c2ccc(Cl)cc2)[C@H]1C (relative stereo)"
  Endpoint Value: 6.89
